target: natural β-amyloid peptide β-AP1-40 (human); assay: cell-based or functional assay
Sequence (peptide, as listed by the source): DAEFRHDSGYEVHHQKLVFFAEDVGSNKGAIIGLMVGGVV
* marks the point of attachment. Cholyl = C[C@H](CCC(=O)*)[C@H]1CC[C@H]2[C@@H]3[C@H](O)C[C@@H]4C[C@H](O)CC[C@]4(C)[C@H]3C[C@H](O)[C@]12C
Attribute: ΔLag; nucleation assay; 100 mole %
Please respond with the number in ratio and leave the unit unwritten.

Look over these answered cases.
{"binder": "Cholyl-LVFAA-OH (SMILES CC(C)C[C@H](NC(=O)CC[C@@H](C)[C@H]1CC[C@H]2[C@@H]3[C@H](O)C[C@@H]4C[C@H](O)CC[C@]4(C)[C@H]3C[C@H](O)[C@]12C)C(=O)N[C@H](C(=O)N[C@@H](Cc1ccccc1)C(=O)N[C@@H](C)C(=O)N[C@@H](C)C(=O)O)C(C)C) [CA-LVFAA-oh]", "ΔLag; nucleation assay; 100 mole % [ratio]": 1.6}
{"binder": "Cholyl-KLVAF-OH (SMILES CC(C)C[C@H](NC(=O)[C@H](CCCCN)NC(=O)CC[C@@H](C)[C@H]1CC[C@H]2[C@@H]3[C@H](O)C[C@@H]4C[C@H](O)CC[C@]4(C)[C@H]3C[C@H](O)[C@]12C)C(=O)N[C@H](C(=O)N[C@@H](C)C(=O)N[C@@H](Cc1ccccc1)C(=O)O)C(C)C) [cholyl-Aβ16-20 (Phe19->Ala)]", "ΔLag; nucleation assay; 100 mole % [ratio]": 2.6}

// moving on: another record for ΔLag; nucleation assay; 100 mole %
-- ask Entry Cholyl-AAAAA-OH (SMILES C[C@H](NC(=O)[C@H](C)NC(=O)[C@H](C)NC(=O)[C@H](C)NC(=O)[C@H](C)NC(=O)CC[C@@H](C)[C@H]1CC[C@H]2[C@@H]3[C@H](O)C[C@@H]4C[C@H](O)CC[C@]4(C)[C@H]3C[C@H](O)[C@]12C)C(=O)O) [Cholyl-penta-alanine] needs its ΔLag; nucleation assay; 100 mole % filled in; supply it.
-- reply 0.8
